MEASURE: melting point

response.value for C/C(=C(\C#N)C(N)=S)N1CCc2ccccc2C1 (field: melting point) = 244 to 245 °C

Recorded melting point (compound O=C(NCCCOc1ccncc1)c1cccs1 ): 123 to 125 °C

So, CC(C)(C)c1cc(SCc2ccccc2C#N)cc(C(C)(C)C)c1O ? Its melting point was 79 to 82 °C

melting point measured on CCOC(=O)c1cnc2ccc(SC)cc2c1O = > 260 °C

GET /value?item= COC[C@@H]1Cc2ccccc2N1S(=O)(=O)c1ccc2c(c1)C(=O)C1=NCC(C)(C)CN12 &field=melting point returns 173 to 175 °C

***
Reported melting point of O=C(c1ccccc1)c1ccc(OCc2cccnc2)cc1O : 88 to 90 °C

O=C(/C=C/c1c[nH]c2ccccc12)c1ccccn1 yielded melting point of 141 to 145 °C

Lab book: melting point of CCOC(=O)c1nc2scc(CN=[N+]=[N-])c2c(=O)[nH]1 noted as 192 °C

Lookup result for CC(=O)Nc1ccc(-c2ccc(C(C)O)o2)cc1 (stereo unspecified) ; measured melting point: 175 to 177 °C

// melting point value for COc1cccc(C(=O)O)c1-c1ccccc1OC(C)C : 139 to 140 °C

Item: CCCCc1nc2c([nH]c(=O)c3ccccc32)s1 | melting point: 172 to 173 °C
